target: IRAK4 (Homo sapiens, UniProt Q9NWZ3); construct: endogenous in cells; host or cells: OCI-LY10; test: IRAK4 MSD degradation in OCI-LY10; assay type: cell-based; conditions: OCI-LY10 cells, 24 hrs, Meso Scale Discovery
Sequence (Q9NWZ3 whole entry): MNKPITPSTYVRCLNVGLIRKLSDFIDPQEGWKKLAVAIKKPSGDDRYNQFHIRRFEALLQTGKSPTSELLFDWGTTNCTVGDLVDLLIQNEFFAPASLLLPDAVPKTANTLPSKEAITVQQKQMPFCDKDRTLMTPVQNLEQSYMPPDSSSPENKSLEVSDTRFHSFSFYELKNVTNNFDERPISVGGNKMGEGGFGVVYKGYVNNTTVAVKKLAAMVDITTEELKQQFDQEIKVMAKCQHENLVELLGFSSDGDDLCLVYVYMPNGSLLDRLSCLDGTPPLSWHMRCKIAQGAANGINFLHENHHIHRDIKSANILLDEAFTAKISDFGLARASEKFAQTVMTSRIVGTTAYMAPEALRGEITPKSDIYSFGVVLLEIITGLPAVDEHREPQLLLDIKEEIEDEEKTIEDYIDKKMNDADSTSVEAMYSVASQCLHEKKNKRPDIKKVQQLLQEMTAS
Exercise: state measured DC50 for each of the compounds provided.

(Q) Looking for the measured DC50 of NC(=O)c1ncc(N2CCCCC2)nc1Nc1ccc(C2CCN(CCCCN(CCC3CCN(C[C@H]4CC[C@H](n5cc(NC(=O)c6cnn7ccc(N8CCOCC8)nc67)c(C(F)F)n5)CC4)CC3)c3cccc4c3C(=O)N(C3CCC(=O)NC3=O)C4=O)CC2)cc1 (some centres unmarked) , can you help?
(A) 1000 to 10000 nM

(Q) And then CC(C)(O)c1cc2nn([C@H]3CC[C@H](CN4CCC(CCN(CCCCN5CCC(c6ccc(Nc7nc(N8CCCCC8)cnc7C(N)=O)cc6)CC5)c5cccc6c5C(=O)N(C5CCC(=O)NC5=O)C6=O)CC4)CC3)cc2cc1NC(=O)c1cccc(C(F)(F)F)n1 (some centres unmarked) , what is it?
(A) < 1000 nM

(Q) Now give it for CC(C)(O)c1cc2nc([C@H]3CC[C@H](CN4CCC(CCN(CCCCN5CCC(c6ccc(Nc7nc(N8CCCCC8)cnc7C(N)=O)cc6)CC5)c5cccc6c5C(=O)N(C5CCC(=O)NC5=O)C6=O)CC4)CC3)sc2cc1NC(=O)c1cccc(C(F)(F)F)n1 (some centres unmarked) too.
(A) < 1000 nM

(Q) // repeat for Cn1c(=O)n(C2CCC(=O)NC2=O)c2cccc(CCCCN(CCNC(=O)[C@H]3CC[C@H](n4cc5cc(NC(=O)c6cccc(C(F)(F)F)n6)c(C(C)(C)O)cc5n4)CC3)CC(=O)N3CCC(c4ccc(Nc5nc(N6CCCCC6)cnc5C(N)=O)cc4)CC3)c21 (some centres unmarked) and report
(A) < 1000 nM

(Q) Also need Cc1ncsc1-c1ccc(CNC(=O)[C@@H]2C[C@@H](O)CN2C(=O)[C@@H](NC(=O)COCCOCCN2CCC(c3ccc(Nc4nc(N5CCCCC5)cnc4C(N)=O)cc3)CC2)C(C)(C)C)c(OCCOCCN(C)C[C@H]2CC[C@H](n3cc4cc(NC(=O)c5cccc(C(F)(F)F)n5)c(C(C)(C)O)cc4n3)CC2)c1 , thanks.
(A) 1000 to 10000 nM
